Hello, the source for this data is ChEMBL document CHEMBL3882727, in case you need it.

test: Cytotoxicity against human ML2 cells after 3 days by InCell analyser assay; type: functional, cell-based; conditions: ML-2, 72 h
measure name: IC50

stdin: Any idea what its IC50 is? The molecule is COc1cc(N2CCC(N3CCCCC3)CC2)ccc1Nc1nccc(-c2c(-c3cccc(C(=O)Nc4c(F)cccc4F)c3)nc3ccccn23)n1
stdout: > 5 µM

====

assay: Cytotoxicity against human BC2 cells after 3 days by InCell analyser assay; type: functional, cell-based; details: BC-2, 72 h
measure name: IC50

stdin: Any idea what its IC50 is? The molecule is COc1cc(N2CCC(N3CCCCC3)CC2)ccc1Nc1nccc(-c2c(-c3cccc(C(=O)Nc4c(F)cccc4F)c3)nc3ccccn23)n1
stdout: 1000 to 5000 nM

====

assay: Cytotoxicity against human EM2 cells after 3 days by InCell analyser assay; assay type: functional, cell-based; conditions: EM-2, 72 h
measure name: IC50

stdin: Any idea what its IC50 is? The compound is COc1cc(N2CCC(N3CCCCC3)CC2)ccc1Nc1nccc(-c2c(-c3cccc(C(=O)Nc4c(F)cccc4F)c3)nc3ccccn23)n1
stdout: > 5 µM

====

test: Cytotoxicity against human M14 cells after 3 days by InCell analyser assay; type: functional, cell-based; details: M14, 72 h
pIC50: −log10 of the molar value.
measure name: pIC50

stdin: Any idea what its pIC50 is? The compound is COc1cc(N2CCC(N3CCCCC3)CC2)ccc1Nc1nccc(-c2c(-c3cccc(C(=O)Nc4c(F)cccc4F)c3)nc3ccccn23)n1
stdout: 5.30 to 6.00

====

assay: Cytotoxicity against human KLE cells after 3 days by InCell analyser assay; assay type: functional, cell-based; details: 72 h
measure name: IC50

stdin: Any idea what its IC50 is? The compound is COc1cc(N2CCC(N3CCCCC3)CC2)ccc1Nc1nccc(-c2c(-c3cccc(C(=O)Nc4c(F)cccc4F)c3)nc3ccccn23)n1
stdout: 1000 to 5000 nM

====

test: Cytotoxicity against human C-4I cells after 3 days by InCell analyser assay; format: functional, cell-based; details: 72 h
measure name: IC50

stdin: Any idea what its IC50 is? The compound is COc1cc(N2CCC(N3CCCCC3)CC2)ccc1Nc1nccc(-c2c(-c3cccc(C(=O)Nc4c(F)cccc4F)c3)nc3ccccn23)n1
stdout: 1000 to 5000 nM

====

test: Cytotoxicity against human NALM1 cells after 3 days by InCell analyser assay; format: functional, cell-based; details: NALM1, 72 h
measure name: IC50

stdin: Any idea what its IC50 is? The compound is COc1cc(N2CCC(N3CCCCC3)CC2)ccc1Nc1nccc(-c2c(-c3cccc(C(=O)Nc4c(F)cccc4F)c3)nc3ccccn23)n1
stdout: 1 to 5 µM

====

assay: Cytotoxicity against human H4 cells after 3 days by InCell analyser assay; assay type: functional, cell-based; conditions: H4, 72 h
measure name: IC50

stdin: Any idea what its IC50 is? The molecule is COc1cc(N2CCC(N3CCCCC3)CC2)ccc1Nc1nccc(-c2c(-c3cccc(C(=O)Nc4c(F)cccc4F)c3)nc3ccccn23)n1
stdout: > 5 µM

====

target: Insulin-like growth factor 1 receptor (Homo sapiens); assay: Inhibition of human GST-rTEV-tagged IGF1R (957 to 1367 residues) expressed in baculovirus infected insect Sf9 cells assessed as decrease in biotin-aminohexyl-AEEEEYMMMMAKKKK-NH2 phosphorylation after 1 hr by fluorometer
pIC50: −log10 of the molar value.
measure name: pIC50

stdin: Given the entry CCOc1cc(C2CCN(CCS(C)(=O)=O)CC2)ccc1Nc1nccc(-c2c(-c3ccc(OC)c(C(=O)Nc4c(F)cccc4F)c3)nc3ccccn23)n1 , what pIC50 was observed with Insulin-like growth factor 1 receptor (Homo sapiens)?
stdout: > 7.00

stdin: Given the entry COc1cc(N2CCC(CCS(C)(=O)=O)CC2)c(C)cc1Nc1nccc(-c2c(-c3ccc(OC)c(C(=O)Nc4c(F)cccc4F)c3)nc3cc(F)ccn23)n1 , what pIC50 was observed with Insulin-like growth factor 1 receptor (Homo sapiens)?
stdout: > 7.00

stdin: Given the entry CCOc1cc(N2CCN(CCS(C)(=O)=O)CC2)c(C)cc1Nc1nccc(-c2c(-c3ccc(OC)c(C(=O)Nc4c(F)cccc4F)c3)nc3ccccn23)n1 , what pIC50 was observed with Insulin-like growth factor 1 receptor (Homo sapiens)?
stdout: > 7.00

stdin: Given the entry CCOc1cc(C2CCN(CCS(C)(=O)=O)CC2)ccc1Nc1nccc(-c2c(-c3ccc(OC(C)C)c(C(=O)Nc4c(F)cccc4F)c3)nc3ccccn23)n1 , what pIC50 was observed with Insulin-like growth factor 1 receptor (Homo sapiens)?
stdout: 6.00 to 7.00

stdin: Given the entry COc1cc(N2CCC(N3CCN(S(C)(=O)=O)CC3)CC2)ccc1Nc1nccc(-c2c(-c3ccc(OC)c(C(=O)Nc4c(F)cccc4F)c3)nc3ccccn23)n1 , what pIC50 was observed with Insulin-like growth factor 1 receptor (Homo sapiens)?
stdout: > 7.00

stdin: Given the entry CCOc1ccc(-c2nc3ccccn3c2-c2ccnc(Nc3ccc(C4CCN(CCS(C)(=O)=O)CC4)cc3OC)n2)cc1C(=O)Nc1c(F)cccc1F , what pIC50 was observed with Insulin-like growth factor 1 receptor (Homo sapiens)?
stdout: > 7.00
